# Tested on: PC-3
# protocol_notes: Cytotoxicity against human PC3 cells expressing […] integrin assessed as cell survival after 72 hrs by SRB assay
# Format: functional, cell-based
# condition_notes: PC-3, 72 h
pIC50: −log10 of the molar value.
measured_attribute: pIC50

Record excerpt, results attached:
>  <smiles_representation>
CC[C@@]1(O)C(=O)OCc2c1cc1n(c2=O)Cc2c-1nc1ccc(OC(=O)N3CCN(C(=O)c4ccc(COC(=O)N[C@@H](CCC(=O)N5CCN(c6cccc(NC7=NCCCN7)c6)CC5)C(=O)O)cc4)CC3)cc1c2/C=N/OC(C)(C)C

>  <pIC50>
< 6.00

$$$$
>  <smiles_representation>
CC[C@@]1(O)C(=O)OCc2c1cc1n(c2=O)Cc2cc3cc(OC(=O)N4CCN(C(=O)c5ccc(COC(=O)N[C@@H](CCC(=O)N6CCN(c7cccc(NC8=NCCCN8)c7)CC6)C(=O)O)cc5)CC4)ccc3nc2-1

>  <pIC50>
< 6.00

$$$$

Query compound follows.
Sure, the documented pIC50 for CC[C@@]1(O)C(=O)OCc2c1cc1n(c2=O)Cc2cc3c(CN(C)C)c(OC(=O)N4CCN(C(=O)c5ccc(COC(=O)N[C@@H](CCC(=O)N6CCN(c7cccc(NC8=NCCCN8)c7)CC6)C(=O)O)cc5)CC4)ccc3nc2-1 is < 6.00
